Source: patent US9840509B2

system: CYP 2C9 (Homo sapiens)
Construct: from tissue; host or cells: human liver microsomes
test-protocol: CYP inhibition in human liver microsomes, 2C9
Format: in vitro ADME
condition-set: pH 7.4, @ 10 μM concn
value-type: inhibition at 10 μM

Answered examples (5):
[
  {
    "compound": "CN(C)C/C=C/C(=O)N1CC2CC(n3nc(-c4ccc(Oc5ccccc5)cc4)c4c(N)ncnc43)CC2C1 (stereo not shown) [Compound 24]",
    "system": "CYP 2C9 (Homo sapiens)",
    "inhibition at 10 μM": "< 50%"
  },
  {
    "compound": "C=CC(=O)N1CC2CC(n3nc(-c4ccc(C(=O)N(C)c5cc(C)ccn5)cc4)c4c(N)ncnc43)CC2C1 (stereo not shown) [Compound 54]",
    "system": "CYP 2C9 (Homo sapiens)",
    "inhibition at 10 μM": "< 50%"
  },
  {
    "compound": "CN(C)C/C=C/C(=O)N1CC2CC(n3nc(-c4ccc(C(=O)Nc5cnccn5)cc4)c4c(N)ncnc43)CC2C1 (stereo not shown) [Compound 49]",
    "system": "CYP 2C9 (Homo sapiens)",
    "inhibition at 10 μM": "< 50%"
  },
  {
    "compound": "C=CC(=O)N1CC2CC(n3nc(-c4ccc(NC(=O)c5ccccn5)cc4)c4c(N)ncnc43)CC2C1 (stereo not shown) [Compound 32]",
    "system": "CYP 2C9 (Homo sapiens)",
    "inhibition at 10 μM": "< 50%"
  },
  {
    "compound": "C=CC(=O)N1CC2CC(n3nc(-c4ccc5oc(-c6ccccc6)nc5c4)c4c(N)ncnc43)CC2C1 (stereo not shown) [Compound 23]",
    "system": "CYP 2C9 (Homo sapiens)",
    "inhibition at 10 μM": "> 50%"
  }
]

Please look at the items below and tell me inhibition at 10 μM for each one, in order.
1. C=CC(=O)N1CC2CC(n3nc(-c4ccc(C(=O)Nc5cc(C(F)(F)F)ccn5)cc4)c4c(N)ncnc43)CC2C1 (stereo not shown) [Compound 40]
2. CN(C)C/C=C/C(=O)N1CC2CC(n3nc(-c4ccc(Oc5ccccn5)cc4)c4c(N)ncnc43)CC2C1 (stereo not shown) [Compound 47]

> 50%
< 50%

----------
system: CYP 2C9 (Homo sapiens, UniProt P11712)
Construct: from tissue; host or cells: human liver microsomes
Sequence (P11712 whole entry): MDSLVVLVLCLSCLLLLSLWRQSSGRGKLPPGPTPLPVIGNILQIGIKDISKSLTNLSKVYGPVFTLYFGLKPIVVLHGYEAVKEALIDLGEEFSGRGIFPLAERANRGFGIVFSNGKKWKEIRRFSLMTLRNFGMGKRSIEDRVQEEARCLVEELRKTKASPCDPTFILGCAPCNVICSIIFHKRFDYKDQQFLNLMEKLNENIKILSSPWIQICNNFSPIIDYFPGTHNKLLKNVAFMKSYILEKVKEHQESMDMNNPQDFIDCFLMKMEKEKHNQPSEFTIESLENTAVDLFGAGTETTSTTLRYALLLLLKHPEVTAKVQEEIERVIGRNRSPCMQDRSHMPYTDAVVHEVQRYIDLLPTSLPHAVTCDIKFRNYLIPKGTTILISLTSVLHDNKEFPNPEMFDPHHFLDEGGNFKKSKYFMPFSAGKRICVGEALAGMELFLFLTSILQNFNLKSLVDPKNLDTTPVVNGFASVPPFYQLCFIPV
test-protocol: CYP inhibition in human liver microsomes, 2C9
Assay type: in vitro ADME
condition-set: pH 7.4, @ 10 μM concn
value-type: inhibition at 10 μM

# batch size: 6; output inhibition at 10 μM per entry
1. C=CC(=O)N1CC2CC(n3nc(-c4ccc5c(c4)OCO5)c4c(N)ncnc43)CC2C1 (stereo not drawn)
2. CO/C(=N\c1cc(C)ccn1)c1ccc(-c2nn(C3CC4CN(C(=O)/C=C/CN(C)C)CC4C3)c3ncnc(N)c23)cc1 (stereo not drawn)
3. C=CC(=O)N1CC2CC(n3nc(-c4ccc(-c5nnc(-c6ccccn6)o5)cc4)c4c(N)ncnc43)CC2C1 (stereo not drawn)
4. C=CS(=O)(=O)N1CC2CC(n3nc(-c4ccc(Oc5ccccc5)cc4)c4c(N)ncnc43)CC2C1 (stereo not drawn)
5. C=CC(=O)N1CC2CC(n3nc(-c4ccc(C(=O)Nc5cnccn5)cc4)c4c(N)ncnc43)CC2C1 (stereo not drawn)
6. C=CC(=O)N1CC2CC(n3cc(-c4ccc(Oc5ccccc5)cc4)c4c(N)ncnc43)CC2C1 (stereo not drawn)

1: < 50%; 2: < 50%; 3: < 50%; 4: > 50%; 5: < 50%; 6: < 50%

Could you report inhibition at 10 μM for every entry in the following list?
1. C=CC(=O)N1CC2CC(n3nc(-c4ccc5nc(Oc6ccccc6)sc5c4)c4c(N)ncnc43)CC2C1 (stereo not drawn)
2. C=CC(=O)N1CC2CC(n3nc(-c4ccc5c(c4)CCS5)c4c(N)ncnc43)CC2C1 (stereo not drawn)
3. C=CS(=O)(=O)N1CC2CC(n3c(=O)n(-c4ccc(Oc5ccccc5)cc4)c4c(N)ncnc43)CC2C1 (stereo not drawn)
4. C=CC(=O)N1CC2CC(n3nc(-c4ccc5ncoc5c4)c4c(N)ncnc43)CC2C1 (stereo not drawn)
5. C=CC(=O)N1CC2CC(n3nc(-c4ccc(-c5nnc(-c6cnccn6)s5)cc4)c4c(N)ncnc43)CC2C1 (stereo not drawn)
6. C=CC(=O)N1CC2CC(n3nc(-c4ccc(C(=O)Nc5ccccn5)cc4)c4c(N)ncnc43)CC2C1 (stereo not drawn)

1. > 50%
2. > 50%
3. < 50%
4. < 50%
5. < 50%
6. < 50%

Please give inhibition at 10 μM, item by item, for the list that follows.
1. C#CC(=O)N1CC2CC(n3nc(-c4ccc(Oc5ccccc5)cc4)c4c(N)ncnc43)CC2C1 (stereo not drawn)
2. C=CC(=O)N1CC2CC(n3nc(-c4ccc5nc(-c6ccccc6)oc5c4)c4c(N)ncnc43)CC2C1 (stereo not drawn)
3. Cc1ccnc(N(C)C(=O)c2ccc(-c3nn(C4CC5CN(C(=O)/C=C/CN(C)C)CC5C4)c4ncnc(N)c34)cc2)c1 (stereo not drawn)

1. < 50%
2. < 50%
3. > 50%
